# assayText: Cmax in Sprague-Dawley rat at 10 mg/kg, po measured up to 24 hrs by LC-MS/MS analysis
# Format: ADME, organism-based
# Design: dose 10 mg/kg, time < 24 hrs, route po
# settings: in vivo
propertyMeasured: Cmax (ng/mL)

molecule="Cc1ccccc1C1C(=O)N(C)c2cnc(Nc3ccc(S(N)(=O)=O)cc3)nc2N1C (stereo unspecified)" propertymeasured=Cmax recordedmeasurement=1720

---

# assayText: Half life in Sprague-Dawley rat at 10 mg/kg, po measured up to 24 hrs by LC-MS/MS analysis
# Assay type: ADME, organism-based
# settings: in vivo
propertyMeasured: half-life (h)

compound="Cc1ccccc1C1C(=O)N(C)c2cnc(Nc3ccc(S(N)(=O)=O)cc3)nc2N1C (stereo unspecified)" endpointunit=h recordedmeasurement=3.03

---

# assaySystem: Serine/threonine-protein kinase 4 (Homo sapiens, UniProt Q13043)
# Sequence (Q13043 whole entry): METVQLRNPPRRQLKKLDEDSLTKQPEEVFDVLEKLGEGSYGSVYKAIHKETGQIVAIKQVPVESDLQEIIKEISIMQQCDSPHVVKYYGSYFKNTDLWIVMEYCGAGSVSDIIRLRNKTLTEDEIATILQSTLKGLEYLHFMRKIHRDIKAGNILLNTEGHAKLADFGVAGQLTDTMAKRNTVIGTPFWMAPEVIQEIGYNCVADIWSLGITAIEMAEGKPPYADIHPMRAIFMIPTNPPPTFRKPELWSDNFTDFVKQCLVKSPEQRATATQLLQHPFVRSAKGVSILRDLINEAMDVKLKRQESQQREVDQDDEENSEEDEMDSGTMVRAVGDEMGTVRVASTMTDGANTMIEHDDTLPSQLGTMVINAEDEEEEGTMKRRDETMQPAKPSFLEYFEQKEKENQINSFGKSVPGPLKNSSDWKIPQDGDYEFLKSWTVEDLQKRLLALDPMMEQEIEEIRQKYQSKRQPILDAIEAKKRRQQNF
# assayText: Inhibition of recombinant full length N-terminal GST -tagged human MST1 expressed in baculovirus infected Sf9 insect cells using KKSRGDYMTMQIG as substrate incubated for 1 hr in presence of ATP by ADP-Glo luminescent assay
Recorded measurements of IC50, one per entry
propertyMeasured: IC50 (nM)

compound=CN1CC(=O)N(C)c2cnc(Nc3ccc(S(N)(=O)=O)cc3)nc21 assaysystem="Serine/threonine-protein kinase 4 (Homo sapiens, UniProt Q13043)" endpointunit=nM censoringsign== recordedmeasurement=495
compound="CN1C(=O)C(c2ccccc2Br)N(C)c2nc(Nc3ccc(S(N)(=O)=O)cc3)ncc21 (stereo not given)" assaysystem="Serine/threonine-protein kinase 4 (Homo sapiens, UniProt Q13043)" endpointunit=nM censoringsign== recordedmeasurement=57
compound="CCNS(=O)(=O)c1ccc(Nc2ncc3c(n2)N(C)C(c2ccccc2C)C(=O)N3C)cc1 (stereo not given)" assaysystem="Serine/threonine-protein kinase 4 (Homo sapiens, UniProt Q13043)" endpointunit=nM censoringsign== recordedmeasurement=119
compound="CC(C)C1C(=O)N(C)c2cnc(Nc3ccc(S(N)(=O)=O)cc3)nc2N1C (stereo not given)" assaysystem="Serine/threonine-protein kinase 4 (Homo sapiens, UniProt Q13043)" endpointunit=nM censoringsign== recordedmeasurement=254
compound="CCC1C(=O)N(C)c2cnc(Nc3ccc(S(N)(=O)=O)cc3)nc2N1C (stereo not given)" assaysystem="Serine/threonine-protein kinase 4 (Homo sapiens, UniProt Q13043)" endpointunit=nM censoringsign== recordedmeasurement=479
compound="CN1C(=O)C(Cc2ccccc2)N(C)c2nc(Nc3ccc(S(N)(=O)=O)cc3)ncc21 (stereo not given)" assaysystem="Serine/threonine-protein kinase 4 (Homo sapiens, UniProt Q13043)" endpointunit=nM censoringsign=> recordedmeasurement=10000
compound="CNS(=O)(=O)c1ccc(Nc2ncc3c(n2)N(C)C(c2c(F)cccc2F)C(=O)N3C)cc1 (stereo not given)" assaysystem="Serine/threonine-protein kinase 4 (Homo sapiens, UniProt Q13043)" endpointunit=nM censoringsign== recordedmeasurement=318
compound="CN1C(=O)C(c2c(F)cccc2F)N(C)c2nc(Nc3ccc(S(=O)(=O)N(C)C)cc3)ncc21 (stereo not given)" assaysystem="Serine/threonine-protein kinase 4 (Homo sapiens, UniProt Q13043)" endpointunit=nM censoringsign== recordedmeasurement=181
compound="COc1cccc(C2C(=O)N(C)c3cnc(Nc4ccc(S(N)(=O)=O)cc4)nc3N2C)c1 (stereo not given)" assaysystem="Serine/threonine-protein kinase 4 (Homo sapiens, UniProt Q13043)" endpointunit=nM censoringsign== recordedmeasurement=954
compound="Cc1ccccc1C1C(=O)N(C)c2cnc(Nc3ccc(S(N)(=O)=O)cc3)nc2N1C (stereo not given)" assaysystem="Serine/threonine-protein kinase 4 (Homo sapiens, UniProt Q13043)" endpointunit=nM censoringsign== recordedmeasurement=23
